Target: B-Raf V600E (Homo sapiens (Human), UniProt P15056, V600E)
Sequence (P15056 whole entry V600E): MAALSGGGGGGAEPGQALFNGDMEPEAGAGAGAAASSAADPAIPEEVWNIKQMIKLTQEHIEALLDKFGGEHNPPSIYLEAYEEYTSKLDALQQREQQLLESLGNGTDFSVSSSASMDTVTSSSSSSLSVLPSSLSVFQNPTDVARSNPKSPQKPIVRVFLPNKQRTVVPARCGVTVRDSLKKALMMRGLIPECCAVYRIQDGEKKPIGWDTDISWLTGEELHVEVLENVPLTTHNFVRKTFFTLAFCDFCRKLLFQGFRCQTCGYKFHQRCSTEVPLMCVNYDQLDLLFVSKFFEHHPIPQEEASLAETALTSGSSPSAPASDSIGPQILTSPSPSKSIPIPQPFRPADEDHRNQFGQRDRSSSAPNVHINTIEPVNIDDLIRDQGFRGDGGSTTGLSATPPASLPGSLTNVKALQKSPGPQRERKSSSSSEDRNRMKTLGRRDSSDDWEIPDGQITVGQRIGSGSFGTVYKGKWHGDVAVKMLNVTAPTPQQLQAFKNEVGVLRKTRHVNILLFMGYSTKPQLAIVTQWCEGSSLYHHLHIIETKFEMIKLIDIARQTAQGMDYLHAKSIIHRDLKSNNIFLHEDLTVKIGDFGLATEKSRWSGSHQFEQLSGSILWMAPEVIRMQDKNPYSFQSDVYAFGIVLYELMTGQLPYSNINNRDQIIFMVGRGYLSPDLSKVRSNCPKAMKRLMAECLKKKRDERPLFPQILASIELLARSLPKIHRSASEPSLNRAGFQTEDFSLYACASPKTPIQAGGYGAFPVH
Assay: B-Raf V600E kinase biochemical activity assay (AlphaScreen, biotin-MEK1 substrate)
Details: 100 μM ATP
recorded.metric: IC50

Solved cases (5 shown):
Cc1ccnc(-c2cnc3[nH]cc(C(=O)c4cccc(NS(=O)(=O)N5CCCC5)c4F)c3c2)n1
< 0.1 µM
CN(C1CC1)S(=O)(=O)Nc1ccc(F)c(C(=O)c2c[nH]c3ncc(-c4cnc(C5CC5)nc4)cc23)c1F
< 0.1 µM
CCN(C)S(=O)(=O)Nc1ccc(F)c(C(=O)c2c[nH]c3ncc(-c4cccc(N5CCOCC5)c4)cc23)c1F
< 0.1 µM
CCN(C)S(=O)(=O)Nc1ccc(F)c(C(=O)c2c[nH]c3ncc(-c4cnc(N5CCN(C(=O)OC(C)(C)C)CC5)nc4)cc23)c1F
< 0.1 µM
CCC(C)S(=O)(=O)Nc1cccc(C(=O)c2c[nH]c3ncc(-c4cnc(C(C)C)nc4)cc23)c1F (centres unmarked)
< 0.1 µM

Item O=C(c1c(F)ccc(NS(=O)(=O)N2CCCC2)c1F)c1c[nH]c2ncc(-c3ccnc(C4CC4)c3)cc12 has what recorded IC50?
< 0.1 µM

# IC50 lookup, item CCN(C)S(=O)(=O)Nc1cccc(C(=O)c2c[nH]c3ncc(-c4ccc(C5(C#N)CC5)cc4)cc23)c1F
< 0.1 µM

Record request: IC50 value, item NS(=O)(=O)Nc1ccc(F)c(C(=O)c2c[nH]c3ncc(-c4cnc(C5CC5)nc4)cc23)c1F
> 0.1 µM

Given the entry CCN(C)S(=O)(=O)Nc1ccc(F)c(C(=O)c2c[nH]c3ncc(-c4cnc(N5CCC5)nc4)cc23)c1F , report its measured IC50.
> 0.1 µM

Sample O=C(c1c(F)ccc(NS(=O)(=O)N2CCCC2)c1F)c1c[nH]c2ncc(-c3ccnc(OC4CCC4)c3)cc12 — what was its IC50?
< 0.1 µM

Record request: IC50 value, item CCN(C)S(=O)(=O)Nc1cccc(C(=O)c2c[nH]c3ncc(-c4cnc(C)nc4)cc23)c1F
< 0.1 µM

Fill in: IC50 of CCNS(=O)(=O)Nc1cccc(C(=O)c2c[nH]c3ncc(-c4cnc(OC)nc4)cc23)c1F is ___
< 0.1 µM

Find the recorded IC50 belonging to COc1ncc(-c2cnc3[nH]cc(C(=O)c4cccc(NS(=O)(=O)N5CCC(OCc6ccccc6)C5)c4F)c3c2)cn1 (centres unmarked) and report it.
> 0.1 µM

Reported IC50, compound CCCN(C)S(=O)(=O)Nc1cccc(C(=O)c2c[nH]c3ncc(-c4cnc(NC5CC5)nc4)cc23)c1F : ____
< 0.1 µM

Entry O=C(c1c(F)ccc(NS(=O)(=O)N2CCC(F)C2)c1F)c1c[nH]c2ncc(-c3cnc(C4CC4)nc3)cc12 (centres unmarked) : reported IC50 = ?
< 0.1 µM

I am curious: what IC50 value has been reported for CN1CCN(c2cccc(-c3cnc4[nH]cc(C(=O)c5cccc(NS(=O)(=O)N6CCCC6)c5F)c4c3)n2)CC1 ?
< 0.1 µM

Sample CCN(C)S(=O)(=O)Nc1cccc(C(=O)c2c[nH]c3ncc(C4CCC4)cc23)c1F — what was its IC50?
< 0.1 µM
